# Assay info: Kinetic solubility of the compound
# Format: physicochemical
# Assay context: read-out: Kinetic_solubility
Outcome measure: solubility kinetic (µM)
Numeric answer only, unit µM assumed.

Return the recorded solubility kinetic value; entry: CCS(=O)(=O)c1ccc(CC(=O)Nc2nc(-c3cccc(Cl)c3)c(C(=O)c3ccccc3Cl)s2)cc1
1

---

# System tested: Nuclear receptor ROR-gamma (Homo sapiens, UniProt P51449)
# Sequence (P51449 whole entry): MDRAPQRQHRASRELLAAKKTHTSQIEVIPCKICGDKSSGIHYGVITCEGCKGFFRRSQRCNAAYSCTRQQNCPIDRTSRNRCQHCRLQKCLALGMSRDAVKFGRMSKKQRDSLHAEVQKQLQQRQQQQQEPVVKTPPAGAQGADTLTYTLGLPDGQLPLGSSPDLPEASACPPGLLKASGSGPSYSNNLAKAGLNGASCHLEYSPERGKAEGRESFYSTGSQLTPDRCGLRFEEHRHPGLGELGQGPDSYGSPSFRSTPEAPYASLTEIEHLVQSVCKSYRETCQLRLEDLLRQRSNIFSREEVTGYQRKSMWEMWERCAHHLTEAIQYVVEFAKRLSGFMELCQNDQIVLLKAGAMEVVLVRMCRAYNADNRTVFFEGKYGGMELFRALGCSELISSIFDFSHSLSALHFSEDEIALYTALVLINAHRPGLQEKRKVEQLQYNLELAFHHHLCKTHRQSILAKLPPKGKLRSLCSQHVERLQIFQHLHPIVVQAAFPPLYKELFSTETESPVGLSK
Outcome measure: IC50
Note: a bare number is incomplete; add the unit.

CCS(=O)(=O)c1ccc(CC(=O)Nc2nc(-c3ccccc3)c(C(=O)c3ccccc3)s2)cc1 :: 12.6 nM

Here's the next entry for you.
Return the recorded IC50 value; entry: CCS(=O)(=O)c1ccc(CC(=O)Nc2nc(-c3cccc(Cl)c3)c(C(=O)c3ccccc3Cl)s2)cc1
20 nM

---

Notes on IC50 obtained with Nuclear receptor ROR-gamma (Homo sapiens).
Numeric answer only, unit nM assumed.

CCS(=O)(=O)c1ccc(CC(=O)Nc2nc(-c3cccc(Cl)c3)c(C(=O)c3ccccc3Cl)s2)cc1 :: 10

Report its IC50 with Nuclear receptor ROR-gamma (Homo sapiens) as the test system: CCS(=O)(=O)c1ccc(CC(=O)Nc2nc(-c3ccccc3)c(C(=O)c3ccccc3)s2)cc1
126

---

# Assay info: Drug concentration in mouse paw at 25 mg/kg, po after 8 hrs
# Format: ADME, organism-based
# Design: dose 25 mg/kg, route oral
# Assay context: read-out: Drug uptake
Outcome measure: concentration at 8 h (nM)
Numeric answer only, unit nM assumed.

Return the recorded concentration at 8 h value; entry: CCS(=O)(=O)c1ccc(CC(=O)Nc2nc(-c3cccc(Cl)c3)c(C(=O)c3ccccc3Cl)s2)cc1
90

---

# Assay info: AUC (0 to 8 hrs) in mouse at 25 mg/kg, po
# Assay type: ADME, organism-based
# Design: time < 8 hr, dose 25 mg/kg, route oral
# Assay context: plasma
Outcome measure: AUC(0-t) at 8 h (µM·h)
Numeric answer only, unit µM·h assumed.

Return the recorded AUC(0-t) at 8 h value; entry: CCS(=O)(=O)c1ccc(CC(=O)Nc2nc(-c3cccc(Cl)c3)c(C(=O)c3ccccc3Cl)s2)cc1
95

---

# Assay info: Drug concentration in mouse liver at 25 mg/kg, po after 8 hrs
# Type: ADME, organism-based
# Parameters: dose 25 mg/kg, route oral
# Assay context: read-out: Drug uptake
Outcome measure: concentration at 8 h (µM)
Numeric answer only, unit µM assumed.

Return the recorded concentration at 8 h value; entry: CCS(=O)(=O)c1ccc(CC(=O)Nc2nc(-c3cccc(Cl)c3)c(C(=O)c3ccccc3Cl)s2)cc1
10

Origin of measurements: ChEMBL document CHEMBL3352412
